Target: T1, Pla1EEE: Pla1RRM with K544/K545/R546 changed to EEE (S. pombe, UniProt Q10295 352-566, K544/K545/R546 to EEE)
T1 sequence: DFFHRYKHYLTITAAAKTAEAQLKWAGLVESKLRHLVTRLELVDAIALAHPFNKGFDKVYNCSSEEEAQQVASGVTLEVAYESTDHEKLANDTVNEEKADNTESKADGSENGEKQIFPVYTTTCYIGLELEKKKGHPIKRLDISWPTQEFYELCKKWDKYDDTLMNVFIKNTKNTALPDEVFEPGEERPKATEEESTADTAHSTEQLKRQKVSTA
Assay: ITC
endpoint name: Kd (µM)
A number alone suffices; assume µM.

Value of measured Kd for the entry Red1 residues 288-345 (Pla1 interaction region), purified (domain or fragment, S. pombe, UniProt Q9UTR8 288-345, looked up, source: E. coli BL21 (DE3), purified (His-Trap, TEV cleavage, second IMAC, Superdex 75); not shown: GB1, N-terminal, cleaved; His6, C-terminal, kept) ISLPLLKQDDWLSSSKPFGSSTPNVVIEFDSDDDGDDFSNSKIEQSNLEKPPSNSENG : 9.8
